From: BindingDB's records for doi:10.1074/jbc.M111.292243

assayed target: Neuronal acetylcholine receptor subunit alpha-7 (Rattus norvegicus)
Sequence (Q05941 whole entry): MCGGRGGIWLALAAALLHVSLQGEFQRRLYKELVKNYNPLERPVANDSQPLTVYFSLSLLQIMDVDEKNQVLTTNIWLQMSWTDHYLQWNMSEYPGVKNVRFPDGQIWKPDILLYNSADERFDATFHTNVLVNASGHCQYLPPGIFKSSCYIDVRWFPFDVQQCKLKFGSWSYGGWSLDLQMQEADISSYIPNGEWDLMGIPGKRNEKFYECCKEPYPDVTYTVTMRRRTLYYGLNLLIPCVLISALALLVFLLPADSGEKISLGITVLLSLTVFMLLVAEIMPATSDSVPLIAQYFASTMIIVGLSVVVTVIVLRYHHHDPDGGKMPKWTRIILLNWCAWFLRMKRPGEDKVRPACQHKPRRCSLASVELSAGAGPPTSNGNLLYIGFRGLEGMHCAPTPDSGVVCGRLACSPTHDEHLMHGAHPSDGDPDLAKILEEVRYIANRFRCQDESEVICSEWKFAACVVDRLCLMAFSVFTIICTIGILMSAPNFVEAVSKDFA
assay protocol: Radioligand Competition Assay
property measured: log10(Ki) (log10 of the value in nM)
Values reflect log10 of reported Ki (nM).

[[record]]
molecule = "O=c1cccc2n1CC1CNCC2C1 (stereo unspecified) [CAS_485-35-8]"
property_measured = "log10(Ki)"
reading = 2.47

[[record]]
molecule = "Brc1ccc(N2CCCNCC2)cn1 [NS3920, 4]"
property_measured = "log10(Ki)"
reading = 2.28

[[record]]
molecule = "CCOc1cc(N2CCCNCC2)cnc1Br"
property_measured = "log10(Ki)"
reading = 2.93

[[record]]
molecule = "c1cncc(N2CCCNCC2)c1"
property_measured = "log10(Ki)"
reading = 2.13


Now, please, on to the next molecule.
Entry under test: CCOc1cncc(N2CCCNCC2)c1 [NS3573, 2] . Its log10(Ki) was 4.00
